B1: Azoarcus group I ribozyme (parent)
chain: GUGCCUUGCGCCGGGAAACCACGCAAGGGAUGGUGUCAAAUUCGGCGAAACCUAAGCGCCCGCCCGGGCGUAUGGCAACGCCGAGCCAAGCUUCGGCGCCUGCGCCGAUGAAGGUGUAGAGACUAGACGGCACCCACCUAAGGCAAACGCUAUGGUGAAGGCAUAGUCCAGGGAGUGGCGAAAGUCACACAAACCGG

- Variants of: B1
- Test: reverse-splicing fitness (ratio to wild type); higher = more active; in vitro selection; Mg2+ level not given
# key: entry, value: reverse-splicing fitness
Lab note: record the figure alone, no unit after it.

Examples with answers:
C82G A120C A145G C150A C169A U176A = 0.0227
C82A A111C A120U A145C C150G U176A = 0.00333
C82G A120G A145C C150A C169A U176A = 0.0119
A111G A120C A145C C150A C169G U176A = 0.0185
C82U A145G C150U = 0.527
A120U A145U C150A C169G U176C = 0.0122
C82A A111G A145C C150A U176G = 0.00802
C82G A111G A120U A145G C150G U176C = 0.00834
C82U A111C A145G C150A C169A U176A = 0.0149
C82G A111G A145G C150U C169G = 0.0106

Prompt: # query: reverse-splicing fitness of entry C82G A111C A145U C150G C169G U176C
Response: 0.00714

Prompt: Need reverse-splicing fitness of C82G A111G A120U A145C C150U C169A U176C , thanks.
Response: 0.00184

Prompt: Need reverse-splicing fitness of A111C A120C A145G C150U C169A U176G , thanks.
Response: 0.00559

Prompt: Item under review: C82G A111G A120C A145C C150A C169G U176A . Reported reverse-splicing fitness?
Response: 0.026

Prompt: Looking for the measured reverse-splicing fitness of C82U A111C A120C A145C C150A C169G U176A , can you help?
Response: 0.0253

Prompt: Requested read-out: reverse-splicing fitness. Entry: C82G A111U A145U C150U U176G
Response: 0.043

Prompt: Can you look up the measured reverse-splicing fitness of C82G A111U A120U A145U C150G U176C for me?
Response: 0.006
